experiment: Oral bioavailability in F344/N Jcl-rnu rat at 40 to 80 mg/kg/day measured after 28 days; assay type: ADME, organism-based; conditions: in vivo, dose 40-80 mg/kg/day, time 28 day
Endpoint: bioavailability (%)

* COc1ccc(/C=C/c2nc(NCCCN(C)C)c3ccccc3n2)cc1 | 12

----------
assay: Half life in F344/N Jcl-rnu rat at 40 to 80 mg/kg/day, po or iv measured after 28 days; type: ADME, organism-based; conditions: in vivo, dose 40-80 mg/kg/day, time 28 day
Endpoint: half-life (h)

• COc1ccc(/C=C/c2nc(NCCCN(C)C)c3ccccc3n2)cc1 = 14
